Field: solubility at 10 min. Provide a value for each of the molecules that follow.
- Protocol Notes: Solubility test of anthracene derivatives in solvents
- Format: physicochemical
- Settings: organic solvent or mixture, thermodynamic from solid; 0.01 g in 1 mL ethyl acetate (10 g/L), ultrasonic waves 10 minutes; read-out: Solubility Test, Solvent Ethyl acetate

| Molecule | Observation Type | Recorded Result |
| --- | --- | --- |
| c1ccc(-c2c3ccccc3c(-c3ccc(-n4c5ccccc5c5cc(-c6ccc7c(c6)c6ccccc6n7-c6ccccc6)ccc54)cc3)c3ccccc23)cc1 [Sample 1-3, reference compound] | solubility at 10 min | < 10000 µg/mL |
| c1ccc(-c2c3ccccc3c(-c3cccc(-n4c5ccccc5c5ccccc54)c3)c3ccccc23)cc1 | solubility at 10 min | < 10000 µg/mL |

Continue with the molecule presented below.
Report solubility at 10 min for c1ccc(-c2c3ccccc3c(-c3ccccc3)c3ccccc23)cc1 [Sample 1-1, 9,10-diphenylanthracene, reference compound] please.
< 10000 µg/mL

====

- Protocol Notes: Film quality test of spin-coated thin films
- Assay type: physicochemical
- Design: key: ◯: a circle is marked in the case of a transparent film where crystallization or white turbidity is not seen; X: a cross is marked in the case of a film where crystallization or white turbidity is seen
- Settings: 10 g/L in ethyl acetate, spin coated on glass substrate at 1000 rpm (60 seconds)

| Molecule | Film Quality Test, Solvent Ethyl acetate |
| --- | --- |
| c1ccc(-c2ccc3c(c2)c2cc(-c4ccccc4)ccc2n3-c2ccc(-c3c4ccccc4c(-c4ccccc4)c4ccccc34)cc2)cc1 | X |
| c1ccc(-c2c3ccccc3c(-c3ccc(-n4c5ccccc5c5ccccc54)cc3)c3ccccc23)cc1 | X |
| c1ccc(-c2c3ccccc3c(-c3ccccc3)c3ccccc23)cc1 [Sample 1-1, 9,10-diphenylanthracene, reference compound] | X |

====

- Protocol Notes: Film quality test of spin-coated thin films
- Format: physicochemical
- Set-up: key: ◯: a circle is marked in the case of a transparent film where crystallization or white turbidity is not seen; X: a cross is marked in the case of a film where crystallization or white turbidity is seen
- Settings: 10 g/L in anisole, spin coated on glass substrate at 1000 rpm (60 seconds)
Observation Type: Film Quality Test, Solvent Anisole

Sample answers from the record:
| Compound | Observation Type | Recorded Result |
| --- | --- | --- |
| c1ccc(-c2c3ccccc3c(-c3ccccc3)c3ccccc23)cc1 [Sample 1-1, 9,10-diphenylanthracene, reference compound] | Film Quality Test, Solvent Anisole | X |
| c1ccc(-c2c3ccccc3c(-c3ccccc3)c3cc(-c4ccc5c(c4)c4ccccc4n5-c4ccccc4)ccc23)cc1 | Film Quality Test, Solvent Anisole | ◯ |
| c1ccc(-c2c3ccccc3c(-c3cccc(-n4c5ccccc5c5ccccc54)c3)c3ccccc23)cc1 | Film Quality Test, Solvent Anisole | ◯ |
| c1ccc(-c2c3ccccc3c(-c3ccccc3)c3cc(-c4ccc(-n5c6ccccc6c6ccccc65)cc4)ccc23)cc1 | Film Quality Test, Solvent Anisole | ◯ |

We next turn to a different compound, shown below.
# query: Film Quality Test, Solvent Anisole of entry c1ccc(-c2c3ccccc3c(-c3ccc(-n4c5ccccc5c5ccccc54)cc3)c3ccccc23)cc1
◯

====

- Protocol Notes: Solubility test of anthracene derivatives in solvents
- Type: physicochemical
- Settings: organic solvent or mixture, thermodynamic from solid; 0.01 g in 1 mL 1,4-dioxane (10 g/L), ultrasonic waves 10 minutes; read-out: Solubility Test, Solvent dioxane
Observation Type: solubility at 10 min

Guide cases for solubility at 10 min, answers given:
| Compound | solubility at 10 min |
| --- | --- |
| c1ccc(-c2c3ccccc3c(-c3ccccc3)c3ccccc23)cc1 [Sample 1-1, 9,10-diphenylanthracene, reference compound] | < 10000 µg/mL |
| c1ccc(-c2c3ccccc3c(-c3ccc(-c4ccc5c(c4)c4ccccc4n5-c4ccccc4)cc3)c3ccccc23)cc1 | > 10000 µg/mL |
| c1ccc(-c2c3ccccc3c(-c3ccccc3)c3cc(-n4c5ccccc5c5ccccc54)ccc23)cc1 | > 10000 µg/mL |

Please report solubility at 10 min for every entry that follows.
1. c1ccc(-c2c3ccccc3c(-c3ccccc3)c3cc(-c4ccc(-n5c6ccccc6c6ccccc65)cc4)ccc23)cc1
2. c1ccc(-c2c3ccccc3c(-c3ccc(-n4c5ccccc5c5cc(-c6ccc7c(c6)c6ccccc6n7-c6ccccc6)ccc54)cc3)c3ccccc23)cc1 [Sample 1-3, reference compound]
3. c1ccc2c(-c3ccc(-n4c5ccccc5c5ccccc54)cc3)c3ccccc3c(-c3ccc(-n4c5ccccc5c5ccccc54)cc3)c2c1 [Sample 1-2, reference compound]
4. c1ccc(-c2c3ccccc3c(-c3ccccc3)c3cc(-c4ccc5c(c4)c4ccccc4n5-c4ccccc4)ccc23)cc1
5. c1ccc(-c2c3ccccc3c(-c3cccc(-n4c5ccccc5c5ccccc54)c3)c3ccccc23)cc1

> 10000 µg/mL
< 10000 µg/mL
< 10000 µg/mL
> 10000 µg/mL
> 10000 µg/mL

What does the record list as solubility at 10 min for c1ccc2cc(-c3c4ccccc4c(-c4ccc(-n5c6ccccc6c6ccccc65)cc4)c4ccccc34)ccc2c1 ?
> 10000 µg/mL
